- Assay text: Pooled population PK analysis of i.v. anidulafungin
- Type: in vivo, human
- Recorded conditions: human, plasma, iv, CL, Mean (SD), patients aged 1 month to < 2 years; n = 23; i.v. LD/MD 3.0/1.5 mg/kg q.d.; weight-corrected; final PK model; SD
Starred links: 1 amine or outer side, 2 acyl side, 3 side chain; linkers in the order of their positions; H or OH if unused. Positions of bridges follow the written chain, without caps; N, C: chain ends. Non-standard residues stand in square brackets, D forms with d. Residues, ends and D or L forms follow the SMILES beside them. *: point of attachment. pTerphenylCO(4''-OnC5H11) = CCCCCOc1ccc(-c2ccc(-c3ccc(C(=O)*)cc3)cc2)cc1; Orn(4R-OH,5R-OH) = O=C([C@H](C[C@@H](O)[C@@H](O)N[*:3])N[*:1])[*:2]; hTyr(3S-OH,4S-OH) = N[C@H](C(=O)O)[C@H](O)[C@@H](O)c1ccc(O)cc1; Pro(3S-OH,4S-Me) = C[C@H]1CN[C@H](C(=O)O)[C@H]1O; Hyp = O=C(O)[C@@H]1C[C@@H](O)CN1
Property: clearance (mL/min/kg)
Express your answer in mL/min/kg, writing the number without its unit.

Looking up CCCCCOc1ccc(-c2ccc(-c3ccc(C(=O)N[C@H]4C[C@@H](O)[C@@H](O)NC(=O)[C@@H]5[C@@H](O)[C@@H](C)CN5C(=O)[C@H]([C@@H](C)O)NC(=O)[C@H]([C@H](O)[C@@H](O)c5ccc(O)cc5)NC(=O)[C@@H]5C[C@@H](O)CN5C(=O)[C@H]([C@@H](C)O)NC4=O)cc3)cc2)cc1 [anidulafungin] ({pTerphenylCO(4''-OnC5H11)}-[Orn(4R-OH,5R-OH)]T[Hyp][hTyr(3S-OH,4S-OH)]T[Pro(3S-OH,4S-Me)]; lactam 1-C) , I found its clearance recorded as 0.35
